Give measured protein stability index for each item. Keep answers brief.
B1: CPN1 (parent)
chain: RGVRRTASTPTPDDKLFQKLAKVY

# Variants of: B1
# assay-comment: protein stability index of a GFP-peptide fusion (GPS, HEK-293T) (PSI 1-6); higher = more stable;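 note: lentivirally expressed fusions sorted by FACS into six bins by GFP to DsRed ratio, PSI derived from sequencing read proportions per bin multiplied by bin number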
# measurement-context: c terminus: a fixed tail appended
Give bare numbers.

Example entries begin here.
>>> print(df.to_string())
   variant_designation  result
0                 L20N    3.48
1                 L20G    3.86
2                 P12C    1.65

Take each entry in turn and give its protein stability index.
1. L20K
2. R5W
3. P12Q

Output:
1: 3.68; 2: 2.2; 3: 2.05

Value sought for every listed variant: protein stability index.
1. V23N
2. Q18M
3. K19S
4. Q18N
5. F17C
6. G2T

Output:
3.73
1.47
1.74
1.8
2.96
2.23

Quick batch: protein stability index for everything below.
1. V3D
2. D13F
3. R4H
4. L16Q
5. T9P
6. R1W
7. R4V
8. D13G

Output:
1: 2.58; 2: 1.99; 3: 2.17; 4: 3.31; 5: 3; 6: 1.02; 7: 2.35; 8: 2.37

Please give protein stability index, item by item, for the list that follows.
1. K19V
2. V3C

Output:
1. 2.1
2. 2
